# System: SK-MEL-5 melanoma
# test_details: NCI-60 one-dose screen, 48 h
# condition: 10 µM unless noted
The panel holds about 83,000 compounds, 20% with a hit somewhere; the sample as a whole holds those more often. Active and inactive are the calls of the source. The calls were made as follows: active = growth percent below 10; inactive = the rest.
Outcome codes: active, inactive

                                    compound  class_assignment
 0           CCSc1nnc(NC(=O)Cc2ccc(Cl)cc2)s1          inactive
 1       CN(C)c1ccc(/C=C\N=Nc2ccc(Br)cc2)cc1          inactive
 2  C=C1C(=O)O[C@H]2[C@H]1CC/C(Cn1cc(-c3ccc(N)cc3)nn1)=C\CC[C@@]1(C)O[C@@H]21          inactive
 3  FC(F)(F)c1cccc(-n2nnc3cnc(Nc4ccc(N5CCCCC5)cc4)nc32)c1          inactive
 4  CCC(=O)Oc1ccc2c(c1)CC[C@@H]1[C@@H]2CC[C@]2(C)C[C@H](OC(=O)CC)C[C@@H]12          inactive
 5  COc1cc(/C=C2\CCCC3=C2N=C2SC(C)=NN2C3c2cc(OC)c(OC)c(OC)c2)cc(OC)c1OC (configuration not stated)          inactive
 6        Nc1nn2cc(-c3ccc(Cl)s3)nc2c2ccccc12          inactive
 7            CC1=C(C#N)C(C)(C)C(C#N)=C(C)N1          inactive
 8  CC(C)C[C@H](NC(=O)[C@@H](Cc1ccccc1)n1ccc(Nc2ccccc2)cc1=O)B(O)O            active
 9    COc1ccc(N=C2NN=C(c3ccc(F)cc3)CS2)cc1OC          inactive
10  CN(C)C/C=C/C(=O)Nc1cc2c(Nc3ccc(F)c(Cl)c3F)ncnc2cc1OCCOC(F)F          inactive
11  CN(C)c1ccc(-c2ccc(-c3ccc(C(=N)N)cn3)o2)cc1            active
12  COc1ccc(/C(=N/O)c2cc(F)c(F)c(OC)c2F)cc1O          inactive
13  COc1cc2c(cc1OC)C1(C)N(CC2)C(=O)OC1(C)C (configuration not stated)          inactive
14  O=C1c2ccccc2C(=O)c2c(N=Nc3sc(=O)[nH]c3S)cccc21          inactive
15   Nc1c(C(=O)Nc2ccccc2)sc2nc3c(cc12)CCCCC3          inactive
16  O=c1oc2cc(OS(=O)(=O)c3ccccc3)c(Cl)cc2c2c1CCCCCC2          inactive
17                      CCCCCC(=O)OCc1ccccc1          inactive
18  COc1ccc(-c2nnc(COc3ccc(NC(=O)Nc4ccc(Cl)c(C(F)(F)F)c4)cc3F)o2)cc1          inactive
19  Cc1cc(Cl)ccc1OC(C)C(=O)Nc1nnc(C2CC2)s1 (configuration not stated)          inactive
20  Cc1nc(Nc2cccnc2)sc1C(=O)/C=C/c1ccc(Cl)cc1          inactive
21  CSc1nc(-c2cc3ccccc3o2)cc(-c2ccc(Cl)cc2)c1C#N          inactive
